compounds and their reported cell viability
System: MOLM14
Procedure Text: cell viability relative to vehicle control; higher = less cytotoxic;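 note: after 48 h exposure read by CellTiter-Glo luminescence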
Cond: 10 µM; SRSF2 genotype: SRSF2 P95H/wt
State just the number; it will be interpreted in %.

Reference set, count: 5
1. Cc1ccc(NC(=O)C2(c3ccc4c(c3)OC(F)(F)O4)CC2)nc1-c1cccc(C(=O)O)c1 [VX-809 (Lumacaftor)]: 109
2. C=CCc1cc(OC)c(OC)c(OC)c1 [Elemicin]: 105
3. COC(=O)Nc1ccc(-c2nc(N3CCOCC3)c3cnn(C4CCN(C(=O)OC)CC4)c3n2)cc1: 40.9
4. Clc1ccc(C(Cn2ccnc2)OCc2ccsc2Cl)c(Cl)c1 (stereo not given) [Tioconazole]: 62.4
5. COc1cc(F)c(C(C)C)cc1-c1ccc(C(F)(F)F)cc1CN1C(=O)O[C@H](c2cc(C(F)(F)F)cc(C(F)(F)F)c2)[C@@H]1C [Anacetrapib (MK-0859)]: 98.7

Here is another compound to look at.
response.value for O=C(O)Cc1ccccc1Nc1c(Cl)cccc1Cl [Diclofenac Potassium] (field: cell viability) = 93.5

###

molecules and their reported cell viability
System: MARIMO
Procedure Text: cell viability relative to vehicle control; higher = less cytotoxic
Cond: 10 µM; SRSF2 genotype: SRSF2 wt/wt
State just the number; it will be interpreted in %.

I looked up Cc1ccccc1CN1C2=NCCN2C(=O)C2=C1CCN(Cc1ccccc1)C2 and its cell viability for MARIMO was 104

I looked up Fc1ccc(Cl)cc1-c1nc(Nc2ccncc2)c2nccnc2n1 and its cell viability for MARIMO was 104

###

System: OCI-AML2
Procedure Text: cell viability relative to vehicle control; higher = less cytotoxic
Cond: 10 µM; SRSF2 genotype: wt/wt
Where a name gives a salt, the structure may show the parent alone.
Observation Type: cell viability (%)
State just the number; it will be interpreted in %.

1. O=c1c(O)c(-c2ccc(O)c(O)c2)oc2cc(O)ccc12: 95.1

I looked up Cc1cc(O)c2c(c1)C(=O)c1cc(O)cc(O)c1C2=O and its cell viability for OCI-AML2 was 83.7

I looked up Clc1cccc(Cl)c1NC1=NCCN1 [Clonidine hydrochloride (Catapres)] and its cell viability for OCI-AML2 was 101

I looked up OC[C@H]1O[C@@](CO)(OC[C@@]2(O[C@H]3O[C@H](CO)[C@@H](O)[C@H](O)[C@H]3O)O[C@H](CO)[C@@H](O)[C@@H]2O)[C@@H](O)[C@@H]1O and its cell viability for OCI-AML2 was 112

I looked up COC(=O)Nc1ccc(-c2nc(N3CCOCC3)c3cnn(C4CCN(C(=O)OC)CC4)c3n2)cc1 and its cell viability for OCI-AML2 was 32.9

I looked up C/C=C(/C)C(=O)OC(C)(C)[C@@H]1Cc2c(ccc3ccc(=O)oc23)O1 and its cell viability for OCI-AML2 was 77.5

I looked up [F][Ti]([F])([F])[F] [Titanium tetrafluoride] and its cell viability for OCI-AML2 was 99

I looked up COc1cc2c(c(O)c1OC)-c1c(cc(OC)c(OC)c1OC)C[C@@H](C)[C@@H](C)C2 and its cell viability for OCI-AML2 was 102

###

Tested on: OCI-AML2
Procedure Text: cell viability relative to vehicle control; higher = less cytotoxic
Cond: 10 µM; SRSF2 genotype: P95H/wt
# strict inequality: cell viability < 90% yields True, everything else yields False

Answer whether the molecule O=C(CCCCCCNC(=O)c1cnc(N(c2ccccc2)c2ccccc2Cl)nc1)NO [Citarinostat (ACY-241)] has cell viability strictly less than 90% True

Answer whether the molecule COc1nc(C)nc(Cl)c1NC1=NCCN1 [Moxonidine] has cell viability strictly less than 90% False

Answer whether the molecule CC(C)=CCC[C@](C)(O[C@@H]1O[C@H](CO)[C@@H](O)[C@H](O)[C@H]1O)[C@H]1CC[C@]2(C)[C@@H]1[C@H](O)C[C@@H]1[C@@]3(C)CC[C@H](O)C(C)(C)[C@@H]3[C@@H](O)C[C@]12C [Ginsenoside F1] has cell viability strictly less than 90% False

Answer whether the molecule CCCNS(=O)(=O)Nc1ncnc(OCCOc2ncc(Br)cn2)c1-c1ccc(Br)cc1 [Macitentan] has cell viability strictly less than 90% False

Answer whether the molecule CNC(=O)c1ccc(-c2cnc3ncc(Cc4ccc5ncccc5c4)n3n2)cc1F has cell viability strictly less than 90% False

Answer whether the molecule COc1cc2oc(-c3ccccc3)cc(=O)c2c(OC)c1OC [5,6,7-Trimethoxyflavone] has cell viability strictly less than 90% True

Source listed as the supplement of paper PMC10981050.
